assay: In vivo brain uptake study, LC-MS/MS; settings: male, CD1, mouse, in vivo, iv, 2 mg/kg
endpointLabel: AUC

- molecule: "Cc1cc(O)cc(C)c1C[C@H](N)C(=O)N[C@H](CCCNC(=N)N)C(=O)N[C@@H](Cc1ccccc1)C(=O)N[C@@H](CCCCN)C(N)=O [compound 9, H-Dmt-D-Arg-Phe-Lys-NH2]"
  readoutValue: "83 ng·h/mL"

----------
test system: μ opioid receptor (MOR); format: cell-based, guinea pig
endpointLabel: GPI Ke^μ

- molecule: "Cc1cc(O)cc(C)c1C[C@@H]1NC(=O)[C@H](CCCN)NC(=O)[C@H](Cc2ccccc2)NC(=O)[C@@H](CCCNC(=N)N)NC1=O [compound 6, c[-D-Arg-Phe-Orn-Dmt-]]"
  tgt: "μ opioid receptor (MOR)"
  readoutValue: "16.8 ± 2.6 nM"
- molecule: "Cc1cc(O)cc(C)c1C[C@@H]1NC(=O)C[C@H](CCCCN)NC(=O)[C@H](Cc2ccccc2)NC(=O)[C@@H](CCCNC(=N)N)NC1=O [compound 7, c[-D-Arg-Phe-β-hLys-Dmt-]]"
  tgt: "μ opioid receptor (MOR)"
  readoutValue: "10.5 ± 1.1 nM"
- molecule: "Cc1cc(O)cc(C)c1C[C@@H]1NC(=O)[C@H](CCCCN)NC(=O)[C@H](Cc2ccccc2)NC(=O)[C@@H](CCCNC(=N)N)NC1=O [compound 1, c[-D-Arg-Phe-Lys-Dmt-]]"
  tgt: "μ opioid receptor (MOR)"
  readoutValue: "3.26 ± 0.84 nM"
- molecule: "C[C@@H](O)[C@H](NC(=O)[C@H]1NC(=O)[C@H]([C@@H](C)O)NC(=O)[C@H](CCCN)NC(=O)[C@@H](Cc2c[nH]c3ccccc23)NC(=O)[C@H](Cc2ccc(O)cc2)NC(=O)[C@@H](NC(=O)[C@H](N)Cc2ccccc2)CSSC1(C)C)C(N)=O [compound 10, reference compound]"
  tgt: "μ opioid receptor (MOR)"
  readoutValue: "40.9 ± 2.7 nM"
